Listing: pIC50 of selected molecules
# SYSTEM: Kras and SOS1 (biotin-tagged human Kras loaded with GDP, His-tagged human SOS1) (Homo sapiens, UniProt P01116, G12D)
# Construct: made in house; host or cells: E. coli (stated for Kras only)
# Sequence (P01116 1-188 isoform P01116-2 G12D): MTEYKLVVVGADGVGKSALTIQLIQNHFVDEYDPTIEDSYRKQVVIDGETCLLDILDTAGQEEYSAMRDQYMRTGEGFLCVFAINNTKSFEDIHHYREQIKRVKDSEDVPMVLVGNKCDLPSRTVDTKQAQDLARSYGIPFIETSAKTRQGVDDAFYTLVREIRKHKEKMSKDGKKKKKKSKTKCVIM
# TEST_DESCRIPTION: Protein-protein interaction inhibition between Kras and SOS1 (KrasGl2D-SOS PPI) using AlphaScreen
# Type: binding
# CONDITION_NOTES: AlphaScreen; biotin-tagged human Kras loaded with GDP, His-tagged human SOS1; read-out: KRAS G12D-SOS PPI IC50
pIC50: −log10 of the molar value. Starred links: 1 amine or outer side, 2 acyl side, 3 side chain; linkers in the order of their positions; H or OH if unused. Positions of bridges follow the written chain, without caps; N, C: chain ends. Non-standard residues stand in square brackets, D forms with d. Residues, ends and D or L forms follow the SMILES beside them. *: point of attachment. hPhe(3-Cl-4-CF3) = N[C@@H](CCc1ccc(C(F)(F)F)c(Cl)c1)C(=O)O; X28 = CCCCOc1cc(CC[C@H](N[*:1])C(=O)[*:2])cc(Cl)c1Cl; NMePhe(4-Me) = CN[C@@H](Cc1ccc(C)cc1)C(=O)O; NMeGly(cPent) = CN[C@H](C(=O)O)C1CCCC1; Phe(3-I) = N[C@@H](Cc1cccc(I)c1)C(=O)O; Phe(2-Me) = Cc1ccccc1C[C@H](N)C(=O)O; NMeCha = CN[C@@H](CC1CCCCC1)C(=O)O; NMeChg = CN[C@H](C(=O)O)C1CCCCC1; NMeD = CN[C@@H](CC(=O)O)C(=O)O; NMeL = CN[C@@H](CC(C)C)C(=O)O; d(β3hA) = C[C@@H](N)CC(=O)O; NMeA = CN[C@@H](C)C(=O)O; NMeAib = CNC(C)(C)C(=O)O; Piperidide = C1CCN(*)CC1; dNMeA = CN[C@H](C)C(=O)O; Ac5c = NC1(C(=O)O)CCCC1; Aze = O=C(O)[C@@H]1CCN1; Sar = CNCC(=O)O

>  <MOLECULE>
CCCCOc1cc(CC[C@@H]2NC(=O)CN(C)C(=O)[C@H](CC3CCCCC3)N(C)C(=O)CN(C)C(=O)CN(C)C(=O)[C@H]([C@@H](C)CC)NC(=O)[C@H](C)N(C)C(=O)C[C@@H](C(=O)N3CCCCC3)N(C)C(=O)[C@H](C3CCCCC3)N(C)C(=O)C3(CCCC3)NC(=O)[C@@H]3CCCN3C2=O)cc(Cl)c1Cl [Compound 2066] ([NMeA]I[Sar][Sar][NMeCha][Sar][X28]P[Ac5c][NMeChg][NMeD]-Piperidide; lactam N-11)

>  <pIC50>
7.20

$$$$
>  <MOLECULE>
CC[C@H](C)[C@@H]1NC(=O)[C@H](CC(C)C)N(C)C(=O)C[C@@H](C(=O)N2CCCCC2)N(C)C(=O)[C@H](CC(C)C)NC(=O)C(C)(C)N(C)C(=O)[C@H](Cc2ccccc2C)NC(=O)[C@H](Cc2cccc(I)c2)NC(=O)CN(C)C(=O)[C@H](Cc2ccc(C)cc2)N(C)C(=O)[C@@H]2CCN2C(=O)CN(C)C1=O [Compound 335] ([NMeL]I[Sar][Aze][NMePhe(4-Me)][Sar][Phe(3-I)][Phe(2-Me)][NMeAib]L[NMeD]-Piperidide; lactam N-11)

>  <pIC50>
7.17

$$$$
>  <MOLECULE>
CC[C@H](C)[C@@H]1NC(=O)[C@H](CC(C)C)N(C)C(=O)C[C@@H](C)NC(=O)[C@H](C2CCCC2)N(C)C(=O)C2(CCCC2)NC(=O)[C@@H]2CCCN2C(=O)[C@H](CCc2ccc(C(F)(F)F)c(Cl)c2)NC(=O)[C@@H](C)N(C)C(=O)[C@H](CC2CCCCC2)N(C)C(=O)CN(C)C(=O)CN(C)C1=O [Compound 1530] (cyclo([Ac5c][NMeGly(cPent)][d(β3hA)][NMeL]I[Sar][Sar][NMeCha][dNMeA][hPhe(3-Cl-4-CF3)]P))

>  <pIC50>
6.89

$$$$
